These measurements were taken from PubChem BioAssay AID1159580.

Please respond with reported normalized growth for every item in the list.
Test: chemical genetic growth profiling, strain panel (AID 1159580);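 note: tested at 20 µM; growth read once vehicle control cultures reached saturation at 30 °C; 1 = growth at the plate median or of vehicle wells; lower values mean less growth of the strain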
Settings: S. cerevisiae deletion strains, growth OD, locus YHR094C, strain hxt1, hits give low values
Out of some 5,500 compounds screened, about 2,000 (36%) were called active. Another 18% or so got no clear call; they are omitted. The list shows a part of the results.
I only need the number, thanks.

What the record says about "CCOC(N)=O" : normalized growth is 1

Memo: "C[C@@H]1C[C@@H]([C@H](O)CC2CC(=O)NC(=O)C2)C(=O)[C@@H](C)C1" , reported normalized growth: 0.0562

// normalized growth value for "COS(C)(=O)=O" : 1.02

---

Experiment: chemical genetic growth profiling, strain panel (AID 1159580);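 note: tested at 20 µM; growth read once vehicle control cultures reached saturation at 30 °C; 1 = growth at the plate median or of vehicle wells; lower values mean less growth of the strain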
Conditions: S. cerevisiae deletion strains, growth OD, locus YFL029C, strain CAK1, hits give low values
The campaign covered roughly 5,500 compounds. About 2,000 (36%) were called active. Not shown: some 18% with an inconclusive outcome. The list shows a part of the results.
parameterMeasured: normalized growth
Lab note: record the figure alone, no unit after it.

Value of measured normalized growth for the entry "Clc1ccc(-c2noc(CSC3=NCCN3)n2)cc1" : 0.987

CCCC1c2ccsc2CCN1C(=S)Nc1ccc(Cl)cc1Cl (centres undefined) has a reported normalized growth of 0.967

Sample "CCc1cc2c(cc1-c1csc(C/C(N)=N\O)n1)C(C)(C)CCC2(C)C" ; normalized growth observed: 0.974

"COc1cc(Cl)c(NS(=O)(=O)c2cc(Br)c(Br)s2)c(OC)c1" has a reported normalized growth of 0.956

Measured normalized growth of "COc1ccccc1NC(=O)Nc1nn(C)c2cccc(OC)c12" : 0.914

The compound listed as "COc1cc(C(=O)Oc2c(Cl)cc(Cl)cc2C=Nc2ccc([N+](=O)[O-])cc2C#N)cc(OC)c1OC" shows normalized growth equal to 0.983

So for "N=C(N)SCc1nc(-c2ccc(Cl)cc2)no1" , the logged normalized growth turned out to be 0.978

Lab note: measured normalized growth of CCC1CCC(C)N(C(=S)Nc2ccc(Br)cc2C)C1 (centres undefined) was 0.963

Lab note: measured normalized growth of "CSc1c(C#N)c(-c2ccc(Cl)cc2)nn1C(=O)c1ccccc1Cl" was 0.958

Record "COc1cc(C(=O)Oc2c(Cl)cc(Cl)cc2C=Nc2cccc(C(F)(F)F)c2)cc(OC)c1OC" , field normalized growth: 0.978

Just so you know, measured normalized growth for "COc1cc(N=Cc2cc(Cl)cc(Cl)c2OS(=O)(=O)c2ccc(C)cc2)c(OC)cc1Cl" came out at 0.932

The reported normalized growth of the compound "O=C(Nc1ccccn1)c1cc(-c2ccccc2)c(C(F)(F)F)s1" was 0.939

Form field normalized growth, entry "CC(C)(O)C#Cc1ccc(/C=N\Nc2ccccc2)cc1" : 0.957

Item: "O=C(Nc1cccc(C(F)(F)F)c1)Oc1ccc(F)cc1Cl" | normalized growth: 0.977

---

Give normalized growth for every item shown.
Test: chemical genetic growth profiling, strain panel (AID 1159580);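 note: tested at 20 µM; growth read once vehicle control cultures reached saturation at 30 °C; 1 = growth at the plate median or of vehicle wells; lower values mean less growth of the strain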
Settings: S. cerevisiae deletion strains, growth OD, strain NNK1, hits give low values
About 2,000 (36%) of roughly 5,500 compounds were called active. Not shown: some 18% with an inconclusive outcome. The list shows a part of the results.

So for CCC1CCC(C)N(C(=S)Nc2ccc(Br)cc2C)C1 (centres undefined) , the logged normalized growth turned out to be 0.962 (inactive)

Lookup result for "CN(C)/C=C/C(=O)c1ccc(C#Cc2ccccc2)cc1" ; measured normalized growth: 0.982 (inactive)

Entry "Cc1nc(C(F)(F)F)c(C(=O)O/N=C(/N)c2ccc(Cl)cc2)s1" , normalized growth reported as 0.995 (inactive)

Lab book: normalized growth of "O=S(=O)(Nc1cc(C(F)(F)F)ccc1F)c1cc(C(F)(F)F)ccc1Cl" noted as 0.934 (inactive)
